system: SN12C; assay: NCI tumour cell line growth inhibition, 48 h
The source made the active and inactive calls. Rule as the data show it: active = GI50 up to about 1.1 µM and inactive = higher.
Allowed answers: active, inactive

Would you please look over these solved cases?
> print(dat)
                                   compound  assigned.label
1  CCOc1ccc2nc3nc(O)nc(C)c3c(NCCCN(CC)CC)c2c1        inactive
2  CC(C)/C(Cl)=N/OC(NC(=O)Nc1ccc(Cl)c(Cl)c1)(C(F)(F)F)C(F)(F)F        inactive
3  Clc1ccc(C2c3ccccc3-c3nc4ccccc4n32)cc1 (configuration not stated)        inactive
4            Oc1ccc(O)c(-n2cccn2)c1-n1cccn1        inactive
5  Clc1cc2nn(C3CCCCO3)nc2cc1Cl (configuration not stated)        inactive

I'd appreciate the recorded outcome for O=C(Nc1nnc(-c2ccccc2)o1)C(SC(=S)N1CCOCC1)c1ccccc1 (configuration not stated) from this test.
inactive

I'd appreciate the recorded outcome for NC(=O)/C=c1/c2ccccc2n2nc3ccccc3c12 from this test.
inactive

I'd appreciate the recorded outcome for O=C(Nc1ccccc1)OCc1nc2c([nH]1)C(=O)C=CC2=O from this test.
inactive

I'd appreciate the recorded outcome for Cc1c(/N=N/c2ccccc2)c(-c2ccccc2)n(C2OC(CO)C(O)C(O)C2O)c(=S)c1C#N (configuration not stated) from this test.
inactive

I'd appreciate the recorded outcome for OC(CC(CC(O)(C(F)(F)Cl)C(F)(F)Cl)=NNc1ccccc1)(C(F)(F)Cl)C(F)(F)Cl from this test.
inactive

I'd appreciate the recorded outcome for O=c1[nH]c(=O)n(C2CC(O)C(CO)O2)cc1C#Cc1cc(C(F)(F)F)cc(C(F)(F)F)c1 (configuration not stated) from this test.
inactive

I'd appreciate the recorded outcome for CC1=C2C(=CC(C)(C)C2O)C(=O)C(C)(O)C12CC2 (configuration not stated) from this test.
active
